The entries below come with measured IC50 values attached.
# system_under_test: IDH2 R140Q (Homo sapiens (Human), UniProt P48735, R140Q)
# Sequence (P48735 40-452 R140Q): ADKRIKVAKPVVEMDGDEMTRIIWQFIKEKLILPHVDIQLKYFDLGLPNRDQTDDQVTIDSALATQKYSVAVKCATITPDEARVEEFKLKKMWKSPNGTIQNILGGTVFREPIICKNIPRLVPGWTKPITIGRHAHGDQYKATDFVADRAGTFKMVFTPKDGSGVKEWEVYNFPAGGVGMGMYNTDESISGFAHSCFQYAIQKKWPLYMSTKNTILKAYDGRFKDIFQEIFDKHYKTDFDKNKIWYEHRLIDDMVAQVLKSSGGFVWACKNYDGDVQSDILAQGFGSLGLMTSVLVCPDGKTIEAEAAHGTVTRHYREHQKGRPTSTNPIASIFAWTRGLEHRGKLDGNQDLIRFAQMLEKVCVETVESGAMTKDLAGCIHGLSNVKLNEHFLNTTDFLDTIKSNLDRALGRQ
# measurement_notes: In vitro assay for IDH2m R140Q inhibitors, cofactor depletion assay
# Format: biochemical
# study_conditions: IDH2 R140Q enzyme

>  <compound>
N#Cc1cc(Nc2nc(N[C@H]3CCC(F)(F)C3)nc(-n3ccc(C(F)(F)F)n3)n2)ccn1

>  <IC50>
< 50 nM

$$$$
>  <compound>
CC(Nc1nc(N[C@H](C)C2CC2)nc(-c2cccc(C(F)(F)F)n2)n1)C(F)(F)F (some centres unmarked)

>  <IC50>
< 50 nM

$$$$
>  <compound>
N#Cc1cc(Nc2nc(NC3CCC(F)(F)C3)nc(-c3cccc(C(F)(F)F)n3)n2)ccn1 (centres unmarked)

>  <IC50>
< 50 nM

$$$$
>  <compound>
CC(Nc1nc(Nc2ccnc(C(F)(F)F)c2)nc(-n2ccc(C(F)(F)F)n2)n1)C(F)(F)F (centres unmarked)

>  <IC50>
< 50 nM

$$$$
>  <compound>
FC1(F)CCC(Nc2nc(NC3Cc4ccc(Cl)cc4C3)nc(-c3cccc(C(F)(F)F)n3)n2)C1 (centres unmarked)

>  <IC50>
< 50 nM

$$$$
>  <compound>
FC1(F)CCC(Nc2nc(NC3CCC(F)(F)C3)nc(-c3nccc(C(F)(F)F)n3)n2)C1 (centres unmarked)

>  <IC50>
< 50 nM

$$$$
>  <compound>
CC(C)(O)CNc1nc(Nc2cccc(Cl)c2)nc(-c2cccc(C(F)(F)F)n2)n1

>  <IC50>
100 to 1000 nM

$$$$
>  <compound>
CC(F)(F)c1nc(-c2nc(NC3CC(F)(F)C3)nc(NC3CC(F)(F)C3)n2)cs1

>  <IC50>
< 50 nM

$$$$

Reference source for all entries: patent US10028961B2
